Quick reference for inhibition at 10 µM among some compounds
target_or_system: CYP3A4 (Homo sapiens)
Sequence (P08684 whole entry): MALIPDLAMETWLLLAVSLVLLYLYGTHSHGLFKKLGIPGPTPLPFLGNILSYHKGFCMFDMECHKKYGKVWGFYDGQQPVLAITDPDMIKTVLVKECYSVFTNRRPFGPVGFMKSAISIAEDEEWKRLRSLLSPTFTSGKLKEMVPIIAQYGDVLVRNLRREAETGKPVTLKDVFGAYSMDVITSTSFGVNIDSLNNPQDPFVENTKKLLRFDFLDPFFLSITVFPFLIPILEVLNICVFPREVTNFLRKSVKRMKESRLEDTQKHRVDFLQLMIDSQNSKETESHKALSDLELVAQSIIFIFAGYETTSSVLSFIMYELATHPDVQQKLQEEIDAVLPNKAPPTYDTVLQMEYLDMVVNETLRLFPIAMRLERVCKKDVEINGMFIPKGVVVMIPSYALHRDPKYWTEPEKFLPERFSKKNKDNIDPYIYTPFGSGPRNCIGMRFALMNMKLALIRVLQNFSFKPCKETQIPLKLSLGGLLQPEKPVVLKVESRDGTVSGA
assay_text: in vitro
Parameters: cytochrome P450 isoform inhibition liability assay
A number alone suffices; assume %.

compound="Nc1nnc(-c2ccc(-c3ccccc3)cc2)s1 [2a]" target_or_system="CYP3A4 (Homo sapiens)" measured_value=50.6
compound="COc1ccc(-c2nnc(N)s2)cc1OC [1c]" target_or_system="CYP3A4 (Homo sapiens)" measured_value=-7.1
compound="Nc1nnc(CCC(=O)c2ccccc2)s1 [3j]" target_or_system="CYP3A4 (Homo sapiens)" measured_value=-22.9
compound="COCCCNc1nnc(N)s1 [4s]" target_or_system="CYP3A4 (Homo sapiens)" measured_value=-37.5
compound="COC(=O)C(Cc1ccccc1)Nc1nnc(N)s1 (stereo not drawn) [4p]" target_or_system="CYP3A4 (Homo sapiens)" measured_value=-12.5

# input compound: Nc1nnc(/C=C/c2ccccc2)s1 [3h] ; wanted: its inhibition at 10 µM
45.9

# input compound: Nc1nnc(-c2ccco2)s1 [1s] ; wanted: its inhibition at 10 µM
-14.9

# input compound: N#Cc1ccc(Cc2ccccc2-c2nnc(N)s2)cc1 [1n] ; wanted: its inhibition at 10 µM
69.6

# input compound: Nc1nnc(-c2cccc(-c3cccc(C(F)(F)F)c3)c2)s1 [2d] ; wanted: its inhibition at 10 µM
33.9

# input compound: CN(C)C(=O)NCc1ccc(-c2nnc(N)s2)cc1 [1p] ; wanted: its inhibition at 10 µM
15.1

###

assay_text: in vitro
Set-up: cytotoxicity, per cent cell growth of A549 cells
condition_label: human, a549 cells; read-out: % cell growth A549 at 10uM
Quick reference for viability at 10 µM among some molecules
A number alone suffices; assume %.

molecule="C[C@@H](c1cccc(C(=O)c2ccccc2)c1)c1nnc(N)s1 [3f]" measured_value=134
molecule="Cc1ccc(CNc2nnc(N)s2)cc1 [4l]" measured_value=105
molecule="Nc1nnc(NCc2ccc(-c3ccccc3)cc2)s1 [4m]" measured_value=112
molecule="Nc1nnc(Cc2cccc([N+](=O)[O-])c2)s1 [3c]" measured_value=117

# input molecule: Nc1nnc(NCc2cccs2)s1 [4c] ; wanted: its viability at 10 µM
142

# input molecule: Nc1nnc(NCCc2ccccc2)s1 [4n] ; wanted: its viability at 10 µM
112

# input molecule: Nc1nnc(CCc2ccccc2)s1 [3g] ; wanted: its viability at 10 µM
109

###

target_or_system: CYP3A4 (Homo sapiens)
assay_text: in vitro
Design: cytochrome P450 isoform inhibition liability assay
Quick reference for inhibition at 10 µM among some compounds

Study these solved cases before continuing.
compound="Nc1nnc(-c2ccc(O)c(O)c2)s1 [1d, 3′,4′-dihydroxy-phenyl-1,3,4-thiadiazole]" outcome_measure="inhibition at 10 µM" measured_value=-8.1%
compound=Nc1nnc(-c2cccc(-c3ccc4c(c3)OCO4)c2)s1 outcome_measure="inhibition at 10 µM" measured_value=28.2%
compound=Nc1nnc(NCCc2ccccc2)s1 outcome_measure="inhibition at 10 µM" measured_value=25.1%
compound=COc1ccc(-c2ccc(-c3nnc(N)s3)nc2)cc1 outcome_measure="inhibition at 10 µM" measured_value=8.5%

With those in mind, consider the next compound.
# input compound: `COc1ccccc1-c1nnc(N)s1` ; wanted: its inhibition at 10 µM
-9.4%

###

Quick reference for inhibition at 10 µM among some compounds
target_or_system: CYP2C9 (Homo sapiens, UniProt P11712)
Sequence (P11712 whole entry): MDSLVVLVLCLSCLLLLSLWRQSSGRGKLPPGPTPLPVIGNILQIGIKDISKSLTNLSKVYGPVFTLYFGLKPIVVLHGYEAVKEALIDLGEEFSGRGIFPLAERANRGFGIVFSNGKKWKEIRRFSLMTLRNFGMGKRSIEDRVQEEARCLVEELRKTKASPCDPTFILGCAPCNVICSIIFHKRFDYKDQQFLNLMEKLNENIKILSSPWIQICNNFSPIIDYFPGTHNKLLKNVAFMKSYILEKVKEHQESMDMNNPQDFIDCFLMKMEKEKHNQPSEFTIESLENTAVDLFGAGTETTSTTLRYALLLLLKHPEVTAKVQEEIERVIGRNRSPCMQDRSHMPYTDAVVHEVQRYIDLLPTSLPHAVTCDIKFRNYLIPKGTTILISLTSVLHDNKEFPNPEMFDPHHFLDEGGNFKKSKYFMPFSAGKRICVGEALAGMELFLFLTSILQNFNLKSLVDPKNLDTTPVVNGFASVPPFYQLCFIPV
assay_text: in vitro
Parameters: cytochrome P450 isoform inhibition liability assay
Report the figure along with its unit, number first.

Study these solved cases before continuing.
compound=COc1cc(-c2nnc(N)s2)cc(OC)c1OC measured_value=-12.4%
compound=Nc1nnc(Cc2cccc([N+](=O)[O-])c2)s1 measured_value=-8.8%

# input compound: `COc1ccc(-c2nnc(N)s2)cc1OC` ; wanted: its inhibition at 10 µM
-25.9%

###

target_or_system: hDHFR (Homo sapiens)
Construct: gene DHFR
Sequence (P00374 whole entry): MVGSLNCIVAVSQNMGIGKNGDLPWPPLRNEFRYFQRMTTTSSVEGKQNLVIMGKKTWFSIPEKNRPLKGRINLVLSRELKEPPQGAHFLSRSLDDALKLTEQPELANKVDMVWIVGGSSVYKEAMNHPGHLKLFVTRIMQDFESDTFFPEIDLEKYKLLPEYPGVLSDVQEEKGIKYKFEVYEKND
assay_text: biochemical
Set-up: human DHFR enzyme inhibition
Ranges used to classify inhibition at 100 µM: bottom = under 20%, middle = from 20% up to 30%, top = 30% and over

compound="COc1ccc(-c2cccc(-c3nnc(N)s3)c2)cc1OC [2f]" target_or_system="hDHFR (Homo sapiens)" group=middle
compound="Nc1nnc(-c2ccc(OCc3ccc(Cl)c(Cl)c3)cc2)s1 [1r]" target_or_system="hDHFR (Homo sapiens)" group=bottom
compound="Nc1nnc(-c2cccc(Br)c2)s1 [1i]" target_or_system="hDHFR (Homo sapiens)" group=bottom
compound="Nc1nnc(Cc2ccccc2)s1 [3b]" target_or_system="hDHFR (Homo sapiens)" group=bottom
compound="COc1ccc(-c2nnc(N)s2)cc1OC [1c]" target_or_system="hDHFR (Homo sapiens)" group=top

Here's the next entry for you.
Looking at COc1cccc(CNc2nnc(N)s2)c1 [4i] , which class would you pick?
middle

###

Quick reference for inhibition at 10 µM among some compounds
target_or_system: hERG (Homo sapiens)
Construct: gene KCNH2
Sequence (Q12809 whole entry): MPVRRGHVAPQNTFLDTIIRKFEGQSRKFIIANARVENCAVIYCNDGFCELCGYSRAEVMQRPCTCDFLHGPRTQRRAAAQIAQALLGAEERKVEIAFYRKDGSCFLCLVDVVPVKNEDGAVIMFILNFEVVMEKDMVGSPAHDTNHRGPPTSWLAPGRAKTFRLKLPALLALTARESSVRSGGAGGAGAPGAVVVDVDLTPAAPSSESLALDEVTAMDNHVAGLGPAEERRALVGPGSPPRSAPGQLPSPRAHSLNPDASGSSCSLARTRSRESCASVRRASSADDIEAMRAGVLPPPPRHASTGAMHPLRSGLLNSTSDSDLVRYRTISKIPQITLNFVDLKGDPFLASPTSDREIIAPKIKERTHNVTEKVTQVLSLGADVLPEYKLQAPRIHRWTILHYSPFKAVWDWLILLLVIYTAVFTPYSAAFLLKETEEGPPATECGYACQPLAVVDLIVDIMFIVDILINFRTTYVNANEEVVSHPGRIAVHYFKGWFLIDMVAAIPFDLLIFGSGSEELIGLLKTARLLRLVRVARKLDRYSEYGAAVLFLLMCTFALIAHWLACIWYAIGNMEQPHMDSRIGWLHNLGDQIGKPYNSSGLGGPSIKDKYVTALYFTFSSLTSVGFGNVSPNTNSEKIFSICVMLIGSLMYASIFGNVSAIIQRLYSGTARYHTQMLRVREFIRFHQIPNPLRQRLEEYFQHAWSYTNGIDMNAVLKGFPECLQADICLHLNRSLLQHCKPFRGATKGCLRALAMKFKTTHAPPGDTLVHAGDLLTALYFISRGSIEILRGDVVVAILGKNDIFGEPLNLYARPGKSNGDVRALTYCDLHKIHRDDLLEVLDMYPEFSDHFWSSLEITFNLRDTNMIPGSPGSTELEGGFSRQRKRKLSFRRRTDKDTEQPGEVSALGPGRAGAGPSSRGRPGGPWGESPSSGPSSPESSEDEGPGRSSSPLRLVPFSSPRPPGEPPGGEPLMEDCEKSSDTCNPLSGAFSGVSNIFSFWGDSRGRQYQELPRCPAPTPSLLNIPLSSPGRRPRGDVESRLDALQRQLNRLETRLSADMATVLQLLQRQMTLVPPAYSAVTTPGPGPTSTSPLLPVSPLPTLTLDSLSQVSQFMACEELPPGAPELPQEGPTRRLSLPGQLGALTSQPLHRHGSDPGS
Parameters: hERG inhibition liability assay
A number alone suffices; assume %.

compound="Nc1nnc(Cc2ccc3ccccc3c2)s1 [3e]" measured_value=-5.6

# input compound: COc1cc(CNc2nnc(N)s2)cc(OC)c1OC [4k] ; wanted: its inhibition at 10 µM
21.3

# input compound: Nc1nnc(NCc2cccs2)s1 [4c] ; wanted: its inhibition at 10 µM
87.3

# input compound: Nc1nnc(CCC(=O)c2cccs2)s1 [3k] ; wanted: its inhibition at 10 µM
0.1

# input compound: Nc1nnc(-c2cccc(-c3ccccc3)c2)s1 [2c] ; wanted: its inhibition at 10 µM
83.7

# input compound: Nc1cccc(-c2nnc(N)s2)c1 [1j] ; wanted: its inhibition at 10 µM
32.6

###

Quick reference for viability at 10 µM among some compounds
assay_text: in vitro
Design: cytotoxicity, per cent cell growth of A549 cells
condition_label: human, a549 cells; read-out: % cell growth A549 at 10uM
Report the figure along with its unit, number first.

substance_smiles=Cc1nnc(N)s1 outcome_measure="viability at 10 µM" measured_value=130%
substance_smiles=Nc1nnc(CCC(=O)c2ccccc2)s1 outcome_measure="viability at 10 µM" measured_value=138%
substance_smiles=Nc1nnc(NCc2ccccc2)s1 outcome_measure="viability at 10 µM" measured_value=104%

# input compound: `Nc1nnc(NCc2ccc(Cl)c(Cl)c2)s1` ; wanted: its viability at 10 µM
106%

# input compound: `Nc1nnc(-c2ccc(OCc3ccc(Cl)c(Cl)c3)cc2)s1` ; wanted: its viability at 10 µM
104%

# input compound: `Nc1nnc(-c2cccc([N+](=O)[O-])c2)s1` ; wanted: its viability at 10 µM
113%

# input compound: `COc1ccc(CNc2nnc(N)s2)cc1OC` ; wanted: its viability at 10 µM
118%

# input compound: `Nc1nnc(NCCc2cccs2)s1` ; wanted: its viability at 10 µM
105%

# input compound: `Nc1nnc(Cc2ccc3ccccc3c2)s1` ; wanted: its viability at 10 µM
141%

# input compound: `N#Cc1ccc(CNc2nnc(N)s2)cc1` ; wanted: its viability at 10 µM
105%

###

target_or_system: CYP2D6 (Homo sapiens)
Sequence (P10635 whole entry): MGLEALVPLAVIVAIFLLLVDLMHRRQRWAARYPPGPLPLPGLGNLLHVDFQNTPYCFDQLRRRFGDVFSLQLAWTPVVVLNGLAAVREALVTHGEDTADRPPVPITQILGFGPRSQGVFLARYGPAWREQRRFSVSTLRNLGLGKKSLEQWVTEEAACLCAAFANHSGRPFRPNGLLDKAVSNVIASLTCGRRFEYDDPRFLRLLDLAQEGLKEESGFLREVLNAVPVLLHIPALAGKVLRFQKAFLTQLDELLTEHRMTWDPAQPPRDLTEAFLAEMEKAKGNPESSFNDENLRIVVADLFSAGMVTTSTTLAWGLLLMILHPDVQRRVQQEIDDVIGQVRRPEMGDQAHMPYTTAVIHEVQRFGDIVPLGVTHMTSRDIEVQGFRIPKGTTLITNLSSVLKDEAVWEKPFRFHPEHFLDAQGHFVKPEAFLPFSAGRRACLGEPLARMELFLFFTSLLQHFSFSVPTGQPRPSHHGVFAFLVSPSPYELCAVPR
assay_text: in vitro
Parameters: cytochrome P450 isoform inhibition liability assay
Each entry gets 0 if its inhibition at 10 µM stays under 60%, and 1 if its inhibition at 10 µM is 60% or above.

compound="N#Cc1ccc(CNc2nnc(N)s2)cc1 [4h]" group=1

Could you verify whether the entry NCc1ccc(-c2nnc(N)s2)cc1 [1b] shows inhibition at 10 µM of no less than 60%?
0

Could you verify whether the entry Nc1nnc(-c2ccccc2Cc2ccccc2)s1 [1m] shows inhibition at 10 µM of no less than 60%?
1

Could you verify whether the entry Nc1nnc(NCc2ccccc2)s1 [4b] shows inhibition at 10 µM of no less than 60%?
0

Could you verify whether the entry N#Cc1ccc(Cc2ccccc2-c2nnc(N)s2)cc1 [1n] shows inhibition at 10 µM of no less than 60%?
1

Could you verify whether the entry CN(C)CCc1nnc(N)s1 [3i] shows inhibition at 10 µM of no less than 60%?
0

Could you verify whether the entry Nc1nnc(-c2ccc(-c3nnc(N)s3)c(N)c2)s1 [1o] shows inhibition at 10 µM of no less than 60%?
0

###

target_or_system: CYP3A4 (Homo sapiens)
assay_text: in vitro
Parameters: cytochrome P450 isoform inhibition liability assay
Ranges used to classify inhibition at 10 µM: lower = under -10%, middle = from -10% up to 20%, upper = 20% and over

Reference set, count: 5
substance_smiles=Nc1nnc(Cc2ccccc2)s1 target_or_system="CYP3A4 (Homo sapiens)" group=lower
substance_smiles=Nc1nnc(Cc2cccc([N+](=O)[O-])c2)s1 target_or_system="CYP3A4 (Homo sapiens)" group=lower
substance_smiles=COc1cc(-c2nnc(N)s2)cc(OC)c1OC target_or_system="CYP3A4 (Homo sapiens)" group=lower
substance_smiles=Nc1nnc(-c2cccc(-c3ccc(C(F)(F)F)cc3)c2)s1 target_or_system="CYP3A4 (Homo sapiens)" group=middle
substance_smiles=Nc1nnc(NCc2ccc(Cl)c(Cl)c2)s1 target_or_system="CYP3A4 (Homo sapiens)" group=upper

Here's the next entry for you.
Looking at `Nc1nnc(CCC(=O)c2cccs2)s1` , which class would you pick?
middle

The measured values listed here are drawn from paper PMC5623949.
